Listed here: items and their measured IC50.
target: met (HGF receptor) in human gastric cancer cells MKN45 (Homo sapiens); construct: endogenous in cells; experiment: Inhibitory activity against met-autophosphorylation using ELISA method (2), MKN45 cells, HGF-independent
Sequence (P08581 25-1390): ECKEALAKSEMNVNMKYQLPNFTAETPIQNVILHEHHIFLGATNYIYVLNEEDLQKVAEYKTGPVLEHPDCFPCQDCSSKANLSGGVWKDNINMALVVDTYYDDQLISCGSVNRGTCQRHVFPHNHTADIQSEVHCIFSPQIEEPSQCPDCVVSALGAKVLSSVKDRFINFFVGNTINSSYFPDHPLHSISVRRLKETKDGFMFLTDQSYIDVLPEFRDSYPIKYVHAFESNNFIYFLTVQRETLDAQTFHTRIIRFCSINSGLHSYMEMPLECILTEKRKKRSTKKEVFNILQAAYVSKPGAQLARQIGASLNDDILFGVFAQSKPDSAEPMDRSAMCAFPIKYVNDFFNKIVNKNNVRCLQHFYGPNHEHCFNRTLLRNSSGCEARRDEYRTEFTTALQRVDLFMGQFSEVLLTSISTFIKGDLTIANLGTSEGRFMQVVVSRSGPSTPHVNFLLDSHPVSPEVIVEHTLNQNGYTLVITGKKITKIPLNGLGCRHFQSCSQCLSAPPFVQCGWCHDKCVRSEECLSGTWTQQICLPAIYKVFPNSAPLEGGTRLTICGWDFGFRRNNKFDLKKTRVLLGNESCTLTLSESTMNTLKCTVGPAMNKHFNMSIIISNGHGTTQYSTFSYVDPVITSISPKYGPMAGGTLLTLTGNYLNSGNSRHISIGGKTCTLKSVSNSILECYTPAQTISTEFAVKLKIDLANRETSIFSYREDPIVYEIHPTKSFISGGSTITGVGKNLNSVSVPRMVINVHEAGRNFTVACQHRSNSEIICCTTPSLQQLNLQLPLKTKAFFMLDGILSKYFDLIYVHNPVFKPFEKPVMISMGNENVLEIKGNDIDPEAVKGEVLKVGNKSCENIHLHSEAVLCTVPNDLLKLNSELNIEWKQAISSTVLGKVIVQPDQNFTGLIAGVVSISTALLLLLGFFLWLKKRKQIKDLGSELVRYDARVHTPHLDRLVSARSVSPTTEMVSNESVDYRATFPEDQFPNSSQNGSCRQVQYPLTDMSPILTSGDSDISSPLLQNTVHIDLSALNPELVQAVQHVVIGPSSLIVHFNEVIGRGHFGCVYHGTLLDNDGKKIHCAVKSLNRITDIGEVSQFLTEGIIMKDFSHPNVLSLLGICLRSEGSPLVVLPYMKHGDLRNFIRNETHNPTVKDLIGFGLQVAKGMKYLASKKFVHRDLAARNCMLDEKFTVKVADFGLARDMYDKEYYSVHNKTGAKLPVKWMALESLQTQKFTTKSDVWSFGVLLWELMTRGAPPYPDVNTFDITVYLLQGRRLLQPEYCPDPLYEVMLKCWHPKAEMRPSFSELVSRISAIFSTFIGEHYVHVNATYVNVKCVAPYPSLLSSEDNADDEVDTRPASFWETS
API: value field is a number in nM; no unit string.

The following compounds have reported results that may help.
1) COc1cc2nccc(Oc3ccc(NC(=O)NC(=O)CSC4CCCC4)cc3Cl)c2cc1OC [Example 116] = 344
2) COc1cc2nccc(Oc3ccc(NC(=O)NC(=O)Cc4cccs4)cc3)c2cc1OC [Example 29] = 37.1
3) COc1cc2c(Oc3ccc(NC(=S)NC(=O)Cc4ccc(F)cc4)cc3F)ccnc2cc1OCCN1CCOCC1 [Example 277] = 20.4

// moving on: another record for IC50
-- ask Query IC50 for COc1cccc(CC(=O)NC(=S)Nc2ccc(Oc3ccnc4cc(OC)c(OC)cc34)cc2)c1 [Example 184]
-- reply 268
